The following are reported Ki results, target or system Thymidylate synthase (Lacticaseibacillus casei).
measure.name: Ki (µM)

• CN(C)c1cccc2c(S(=O)(=O)Oc3ccc(C[C@H](NC(=O)c4ccc5ccccc5c4)C(=O)O)cc3)cccc12 [Dansyl derivative, 7L] = 17
• CN(C)c1cccc2c(S(=O)(=O)Oc3ccc(C[C@H](NS(=O)(=O)CC45CCC(C(=O)C4)C5(C)C)C(=O)O)cc3)cccc12 (stereo partly drawn) [Dansyl derivative, 6L] = 5.8
• CN(C)c1cccc2c(S(=O)(=O)Oc3c(I)cc4c(c3I)CN(S(=O)(=O)c3cccc5c(N(C)C)cccc35)[C@H](C(=O)O)C4)cccc12 [Dansyl derivative, 2R] = 3.6
